Value source: patent US8906904B2

# TARGET_DESC: human soluble guanylate cyclase alpha 1 and beta 1 subunits (sGC) (Homo sapiens, UniProt Q02108+Q02153)
# ASSAY_TEXT: sGC cellular activator assay (cGMP, HTRF)
# SETUP_CONDITIONS: CHO cells stably expressing human sGC alpha 1/beta 1, preincubated with 40 microM ODQ; cGMP readout; assay run with and without 50% human serum, Table 2 does not say which
# Procedure: The sGC cellular activator assay is performed in the presence and absence of 50% human serum (HS) using Chinese hamster ovary cells that have been stably transfected to express the human soluble guanylate cyclase alpha 1 and beta 1 subunits (sGC). […] Diluted compounds are added to cells and they are incubated at room temperature for thirty min. cGMP is measured using a CisBio homogeneous time resolved fluorescence kit and the EC50 is calculated for each compound. […]
This section presents molecules with their documented pEC50 values.
# log scale: pEC50 equals minus log10 of the concentration in mol/L

# example entries with known answers
INSERT INTO measurements (smiles_repr, recorded_result) VALUES
  ('CCOc1c(C(=O)O)cnn1-c1cccc(-c2cccc(Cl)c2OCc2ccc3c(c2)CCN(CCOC)C3)n1', 7.09),
  ('CCOc1c(C(=O)O)cnn1-c1cccc(-c2cccc(C)c2OCc2ccc3c(c2)CCN(C(C)C)C3)n1', 6.77),
  ('CCOc1c(C(=O)O)cnn1-c1cccc(-c2cccc(C)c2OCc2ccc3c(c2C(F)(F)F)CCN(C2CCOCC2)C3)n1', 7.96),
  ('COc1c(C(=O)O)cnn1-c1cccc(-c2cccc(C(F)(F)F)c2OCc2ccc3c(c2C)CCN(C2COC2)C3)n1', 7.55);

Next item in the queue.
Please give the measured pEC50 for this molecule: CCOc1c(C(=O)O)cnn1-c1cccc(-c2cccc(C)c2OCc2ccc3c(c2C)CCN(C[C@H]2COCCO2)CC3)n1
7.44

----------
# ASSAY_TEXT: Assessment of solubility (McIlvaine buffers, 24 h shake, UPLC-UV)
# Format: physicochemical
# SETUP_CONDITIONS: pH 6.8, aqueous buffer, kinetic from dmso stock
# cutoff 90 µg/mL applies to solubility at 24 h; >= gives met, < gives not met

Previously resolved entries follow.
INSERT INTO measurements (smiles_repr, label_class) VALUES
  ('CCOc1c(C(=O)O)cnn1-c1cccc(-c2cccc(C)c2OCc2ccc3c(c2OC)CCN(C2COC2)C3)n1', 'met'),
  ('COc1c(C(=O)O)cnn1-c1cccc(-c2cccc(C)c2OCc2cc(C)c3c(c2C)CN(C2CCOCC2)C3)n1', 'met'),
  ('CCOc1c(C(=O)O)cnn1-c1cccc(-c2cccc(C)c2OCc2ccc3c(c2C)CCN(C[C@@H]2CCO2)CC3)n1', 'not met'),
  ('CCOc1c(C(=O)O)cnn1-c1cccc(-c2cccc(C)c2OCc2ccc3c(c2C)CCN(CC2(C)COC2)CC3)n1', 'not met'),
  ('COc1c(C(=O)O)cnn1-c1cccc(-c2cccc(C)c2OCc2cc3c(c(C(F)(F)F)c2)CN(C2CCOCC2)CC3)n1', 'not met');

Quick check: does CCOc1c(C(=O)O)cnn1-c1cccc(-c2cccc(C)c2OCc2ccc3c(c2)CCN(C(C)C)C3)n1 have solubility at 24 h greater than or equal to 90 µg/mL?
not met

hey, is solubility at 24 h for this one >= 90 µg/mL? Cc1cccc(-c2cccc(-n3ncc(C(=O)O)c3OCC(C)C)n2)c1OCc1ccc2c(c1C)CCN(C1CCOCC1)C2
met

----------
# TARGET_DESC: human soluble guanylate cyclase alpha 1 and beta 1 subunits (sGC) (Homo sapiens, UniProt Q02108+Q02153)
# Sequence (Q02108 1-690): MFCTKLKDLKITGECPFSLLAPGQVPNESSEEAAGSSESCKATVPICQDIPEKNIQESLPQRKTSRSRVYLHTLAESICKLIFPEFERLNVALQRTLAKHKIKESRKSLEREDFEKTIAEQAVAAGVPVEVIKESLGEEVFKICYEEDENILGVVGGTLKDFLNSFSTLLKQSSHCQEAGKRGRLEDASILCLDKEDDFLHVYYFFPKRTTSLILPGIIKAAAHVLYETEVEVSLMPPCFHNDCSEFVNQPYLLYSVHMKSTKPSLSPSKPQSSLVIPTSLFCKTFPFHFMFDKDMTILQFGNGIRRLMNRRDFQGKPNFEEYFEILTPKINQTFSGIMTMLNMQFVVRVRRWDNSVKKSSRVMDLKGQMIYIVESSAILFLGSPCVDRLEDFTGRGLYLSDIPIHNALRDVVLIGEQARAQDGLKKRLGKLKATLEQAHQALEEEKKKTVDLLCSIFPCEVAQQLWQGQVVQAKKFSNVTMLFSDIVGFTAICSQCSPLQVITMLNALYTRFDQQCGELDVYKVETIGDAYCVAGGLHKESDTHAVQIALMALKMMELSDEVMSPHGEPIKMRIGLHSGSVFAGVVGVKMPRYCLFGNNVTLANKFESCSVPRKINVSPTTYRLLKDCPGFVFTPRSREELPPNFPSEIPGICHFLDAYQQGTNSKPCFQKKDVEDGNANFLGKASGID
# Sequence (Q02153 1-619): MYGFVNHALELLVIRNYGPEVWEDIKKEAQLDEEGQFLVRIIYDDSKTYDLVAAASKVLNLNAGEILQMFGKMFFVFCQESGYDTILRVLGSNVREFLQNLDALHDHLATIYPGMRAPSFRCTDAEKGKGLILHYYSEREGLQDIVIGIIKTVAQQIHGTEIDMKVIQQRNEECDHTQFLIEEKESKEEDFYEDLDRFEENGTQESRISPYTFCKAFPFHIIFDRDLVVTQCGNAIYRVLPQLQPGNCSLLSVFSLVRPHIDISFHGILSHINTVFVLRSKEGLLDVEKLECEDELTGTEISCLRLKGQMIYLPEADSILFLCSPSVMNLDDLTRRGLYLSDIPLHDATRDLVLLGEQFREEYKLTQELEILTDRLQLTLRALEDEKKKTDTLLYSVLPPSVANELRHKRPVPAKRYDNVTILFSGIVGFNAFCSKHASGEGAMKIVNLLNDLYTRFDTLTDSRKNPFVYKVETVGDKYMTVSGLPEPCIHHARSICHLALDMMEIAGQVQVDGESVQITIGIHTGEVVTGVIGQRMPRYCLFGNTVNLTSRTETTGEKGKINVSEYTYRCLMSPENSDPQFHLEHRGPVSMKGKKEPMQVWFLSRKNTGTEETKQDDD
# ASSAY_TEXT: sGC cellular activator assay (cGMP, HTRF)
# SETUP_CONDITIONS: CHO cells stably expressing human sGC alpha 1/beta 1, preincubated with 40 microM ODQ; cGMP readout; assay run with and without 50% human serum, Table 2 does not say which
MEASUREMENT_TYPE: pEC50
Note on units: pEC50 is unitless, being -log10 of a concentration expressed in mol/L.

Worked set:
INSERT INTO results (compound, recorded_result) VALUES
  ('COc1c(C(=O)O)cnn1-c1cccc(-c2cccc(C)c2OCc2ccc3c(c2C(F)(F)F)CCN(C2CCOCC2)C3)n1', 8.18),
  ('CCOc1c(C(=O)O)cnn1-c1cccc(-c2cccc(C)c2OCc2ccc3c(c2C)CCN([C@H]2CCOC2)CC3)n1', 8.00),
  ('CCOc1c(C(=O)O)cnn1-c1cccc(-c2cccc(C)c2OCc2cc(C)c3c(c2)CCN(C2CCOC2)C3)n1 (centres unmarked)', 8.10),
  ('Cc1cccc(-c2cccc(-n3ncc(C(=O)O)c3OC(C)C)n2)c1OCc1ccc2c(c1C)CCN(C1CCOCC1)C2', 7.51),
  ('COc1c(C(=O)O)cnn1-c1cccc(-c2cccc(C)c2OCc2ccc3c(c2)CN(CC2CC(F)(F)C2)C3)n1', 8.10),
  ('CCOc1c(C(=O)O)cnn1-c1cccc(-c2cccc(C)c2OCc2ccc3c(c2C)CCN(CC2COCCO2)C3)n1 (stereo in doubt)', 7.52),
  ('COc1c(C(=O)O)cnn1-c1cccc(-c2cccc(C)c2OCc2ccc3c(c2)C(C)(C)CN(C2CCOC2)C3)n1 (centres unmarked)', 7.46),
  ('COc1c(C(=O)O)cnn1-c1cccc(-c2cc(F)cc(F)c2OCc2ccc3c(c2)CCN(C2COC2)C3)n1', 6.77);

Look up pEC50: CCOc1c(C(=O)O)cnn1-c1cccc(-c2cccc(C)c2OCc2ccc3c(c2C)CCN(CC2CCCOC2)C3)n1 (centres unmarked)
7.64

----------
# ASSAY_TEXT: Assessment of solubility (McIlvaine buffers, 24 h shake, UPLC-UV)
# Format: physicochemical
# SETUP_CONDITIONS: pH 6.8, aqueous buffer, kinetic from dmso stock
MEASUREMENT_TYPE: solubility at 24 h (µg/mL)
// return numeric value only (unit: µg/mL, not printed)

Solved cases (5 shown):
INSERT INTO measurements (compound, measurement_type, recorded_result) VALUES
  ('CCOc1c(C(=O)O)cnn1-c1cccc(-c2cccc(C)c2OCc2ccc3c(c2)CCN(C2CCOC(C)C2)C3)n1 (stereo not drawn)', 'solubility at 24 h', 89),
  ('CCOc1c(C(=O)O)cnn1-c1cccc(-c2cccc(C)c2OCc2ccc3c(c2)CCN(C2CCOC2C)C3)n1 (stereo not drawn)', 'solubility at 24 h', 78),
  ('COc1c(C(=O)O)cnn1-c1cccc(-c2cccc(C)c2OCc2cc(F)c3c(c2)CCN([C@H]2CCOC2)C3)n1', 'solubility at 24 h', 80),
  ('COc1c(C(=O)O)cnn1-c1cccc(-c2cccc(C)c2OCc2ccc3c(c2)CCCN(C2CCOCC2)C3)n1', 'solubility at 24 h', 97),
  ('CCOc1c(C(=O)O)cnn1-c1cccc(-c2cccc(C)c2OCc2ccc3c(c2OC)CCN(C2CCOCC2)C3)n1', 'solubility at 24 h', 86);

// lookup solubility at 24 h for Cc1cccc(-c2cccc(-n3ncc(C(=O)O)c3OC(C)C)n2)c1OCc1ccc2c(c1)CCN(C(C)C)C2
78

Which solubility at 24 h is reported for this compound? CCOc1c(C(=O)O)cnn1-c1cccc(-c2cccc(C)c2OCc2ccc3c(c2C)CCN(C2COC(C)(C)OC2)C3)n1
73

Recorded solubility at 24 h for CCOc1c(C(=O)O)cnn1-c1cccc(-c2cccc(C)c2OCc2ccc3c(c2)CCN(CC2CC(=O)N(C)C2)C3)n1 (stereo not drawn) , please?
77

Name the recorded solubility at 24 h for CCOc1c(C(=O)O)cnn1-c1cccc(-c2cccc(C)c2OCc2ccc3c(c2)CCN(CC2CCOC2)C3)n1 (stereo not drawn) .
74
